System: blood coagulation
assay-notes: PT and aPTT assay in cynomolgus monkeys (Example 45)
Assay type: in vivo
experimental-conditions: day 36; escalating dose regimen; platelet poor plasma
Protocol: Groups, each consisting of two male and three female monkeys, were injected subcutaneously with ISIS 416838, ISIS 416850, ISIS 416858, ISIS 416864, or ISIS 417002 in escalating doses. […] Body weights were measured weekly. […] Blood samples were collected in tubes containing sodium citrate. PT and aPTT were determined in duplicate with an ACL 9000 coagulation instrument (Instrumentation Laboratory, Italy). […]
Listing: aPTT ratio (INR) of selected substances
Respond numerically, and do not add a unit to the figure.

Hello, please tell me recorded aPTT ratio (INR) for this one: ISIS 416864: MOE gapmer, nucleobases 1275 to 1318 of SEQ ID NO: 1 (Table 8) (antisense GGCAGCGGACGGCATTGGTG; MOE gapmer, wing and gap sizes not given here)
1.19

Name the recorded aPTT ratio (INR) of the item ISIS 417002: MOE gapmer, nucleobases 1275 to 1318 of SEQ ID NO: 1 (Table 8) (antisense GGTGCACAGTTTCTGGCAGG; MOE gapmer, wing and gap sizes not given here) in your answer.
1.18

Provide aPTT ratio (INR) value for the following substance: ISIS 416858: MOE gapmer, nucleobases 1275 to 1318 of SEQ ID NO: 1 (Table 8) (antisense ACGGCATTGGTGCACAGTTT; MOE gapmer, wing and gap sizes not given here)
1.36

// fetch aPTT ratio (INR) given entry ISIS 416850: MOE gapmer, nucleobases 1275 to 1318 of SEQ ID NO: 1 (Table 8) (antisense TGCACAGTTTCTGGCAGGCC; MOE gapmer, wing and gap sizes not given here)
1.26

Hello, please tell me recorded aPTT ratio (INR) for this one: ISIS 416838: MOE gapmer, nucleobases 1018 to 1042 of SEQ ID NO: 1 (Table 6) (antisense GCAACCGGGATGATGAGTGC; MOE gapmer, wing and gap sizes not given here)
1.20
